- Test system: Vero E6
- Protocol notes: relative viability EC50 (midpoint between 100% and the lowest measured viability); higher = less toxic
- Experimental conditions: 72 h
Endpoint label: relative viability EC50

The cases that follow already have their relative viability EC50 on record.
CN(C)CCC(c1ccc(Br)cc1)c1ccccn1 (stereo not given) [brompheniramine]: > 10 µM
O=C(O)c1ccccc1S [o-mercapto-benzoic-acid]: > 10 µM
Cc1cc(F)c(Nc2ncnc3cc(OCc4ccccc4)ccc23)cc1O: > 10 µM
CCC(C)(Oc1ccc(C2(c3ccc(OC(C)(CC)C(=O)O)cc3)CCCCC2)cc1)C(=O)O (stereo not given) [clinofibrate]: > 10 µM
Fc1ccc(-c2cncc(CN3CCN(c4cccc5c4OCCO5)CC3)c2)cc1 [adoprazine]: > 10 µM
COc1ccnc2[nH]cc(C(=O)C(=O)N3CCN(C(=O)c4ccccc4)C[C@H]3C)c12 [BMS-806]: > 10 µM
O=C(O[C@@H]1Cc2c(O)cc(O)cc2O[C@@H]1c1cc(O)c(O)c(O)c1)c1cc(O)c(O)c(O)c1 [epigallocatechin-gallate-(-)]: > 10 µM
CN(C)c1ccc(-c2nc3c(N4CCN(CC(=O)Nc5nccs5)CC4)c(Cl)cnc3[nH]2)cc1: > 10 µM

Returns the measured relative viability EC50 for the input molecule. Input: C/C(=N\NC(=O)C(NC(=O)c1ccccc1)c1n[nH]c(=O)c2ccccc12)c1cccc(Br)c1 (stereo not given)
> 10 µM

// next record CCN(CCO)CCCOc1ccc2c(Nc3cc(CC(=O)Nc4cccc(F)c4)[nH]n3)ncnc2c1 [barasertib-HQPA]
> 10 µM

// next record CCN(C)C(=O)Oc1cccc([C@H](C)N(C)C)c1 [rivastigmine]
> 10 µM

// next record O=C(Nc1cnc(Cl)nc1)c1ccc(F)c(F)c1
> 10 µM

// next record N[C@@H](C[C@@H](F)C(=O)O)C(=O)O [BAY-85-8050]
> 10 µM

// next record CNC(=O)Nc1ccc(-c2nc(N3CC4CCC(C3)O4)c3cnn(C4CCC5(CC4)OCCO5)c3n2)cc1
0.109 µM

// next record O=C(CCCN1CCC(O)(c2ccc(Cl)cc2)CC1)c1ccc(F)cc1 [haloperidol]
> 10 µM
